Molecular target: Opioid receptors; mu & kappa (UniProt P41145+P35372)
Sequence (P35372 whole entry, looked up): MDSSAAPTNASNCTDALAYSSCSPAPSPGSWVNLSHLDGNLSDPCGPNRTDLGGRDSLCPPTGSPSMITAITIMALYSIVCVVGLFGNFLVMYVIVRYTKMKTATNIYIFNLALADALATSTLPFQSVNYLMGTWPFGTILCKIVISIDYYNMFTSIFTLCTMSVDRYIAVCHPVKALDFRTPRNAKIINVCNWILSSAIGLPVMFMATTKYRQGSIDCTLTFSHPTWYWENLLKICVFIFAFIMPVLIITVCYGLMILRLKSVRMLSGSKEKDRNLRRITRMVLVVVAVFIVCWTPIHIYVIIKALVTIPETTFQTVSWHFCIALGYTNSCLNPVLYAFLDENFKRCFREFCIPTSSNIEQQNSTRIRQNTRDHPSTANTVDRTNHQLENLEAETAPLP
Sequence (P41145 whole entry, looked up): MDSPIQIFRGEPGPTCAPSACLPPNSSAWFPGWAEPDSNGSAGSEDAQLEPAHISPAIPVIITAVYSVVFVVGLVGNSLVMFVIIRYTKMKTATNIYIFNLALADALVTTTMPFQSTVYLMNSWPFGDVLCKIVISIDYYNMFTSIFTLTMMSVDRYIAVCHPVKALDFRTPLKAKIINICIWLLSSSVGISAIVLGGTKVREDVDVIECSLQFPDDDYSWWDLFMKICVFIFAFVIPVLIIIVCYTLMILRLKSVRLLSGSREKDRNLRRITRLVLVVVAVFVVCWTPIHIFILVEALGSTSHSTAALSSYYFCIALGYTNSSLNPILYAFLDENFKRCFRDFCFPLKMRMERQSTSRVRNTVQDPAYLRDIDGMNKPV
Experiment: Ratio of affinity towards mu and kappa opioid receptors
Assay type: protein assay
Would you mind telling me the reported Selectivity ratio of each entry?

// below: answered compounds
>>> print(df.to_string())
                                   compound           property  reported_result
0  CC(C)CC(NC(=O)[C@]1(c2ccccc2)CC1CN1CC[C@@]2(C)c3cc(O)ccc3CC1C2C)C(=O)NCCCCCCN=C(N)N (stereo partly drawn)  Selectivity ratio             18.9
1  CCC(=N)NCCCNC(=O)C(CC(C)C)NC(=O)[C@]1(c2ccccc2)CC1CN1CC[C@@]2(C)c3cc(O)ccc3CC1C2C (stereo partly drawn)  Selectivity ratio             19.6

Now turn to the next compound.
Using the record for CC(C)CC(NC(=O)[C@]1(c2ccccc2)CC1CN1CC[C@@]2(C)c3cc(O)ccc3CC1C2C)C(=O)NCCCN=C(N)N (stereo partly drawn) , report its Selectivity ratio.
8.7
